- EXPERIMENTAL DETAILS: Stability in simulated gastric fluid
- Format: in vitro ADME
- ASSAY CONDITIONS: 2 μM, 37° C., pH 1.5, 24 h
Where a SMILES comes first, the peptide text is derived from it. [ ]: non-standard residue; d: D form. ξ: configuration not given here. ξαMeBip(2'-Et,4'-OMe) = CCc1cc(OC)ccc1-c1ccc(CC(C)(N)C(=O)O)cc1; ξαMePhe(2,6-F2) = CC(N)(Cc1c(F)cccc1F)C(=O)O; ξhhPhe = NC(CCCc1ccccc1)C(=O)O; Aib = CC(C)(N)C(=O)O
PARAMETER: % degradation in 24 h when incubated with simulated gastric fluid (%)
// return numeric value only (unit: %, not printed)

% degradation in 24 h when incubated with simulated gastric fluid reading for CCc1cc(OC)ccc1-c1ccc(CC(C)(NC(=O)[C@H](CC(=O)O)NC(=O)[C@H](CO)NC(=O)[C@@H](NC(=O)C(C)(Cc2c(F)cccc2F)NC(=O)[C@@H](NC(=O)CNC(=O)[C@H](CCC(=O)O)NC(=O)C(C)(C)NC(=O)[C@H](Cc2c[nH]cn2)NC(=O)[C@@H](N)C(C)C)[C@@H](C)O)[C@@H](C)O)C(=O)NC(CCCc2ccccc2)C(N)=O)cc1 (stereo partly shown) [compound 31] (H-VH[Aib]EGT[ξαMePhe(2,6-F2)]TSD[ξαMeBip(2'-Et,4'-OMe)][ξhhPhe]-NH2) : 15
